# maps each entry to its IC50
Assayed System: EGFR exon 20 ASV Ins V769_D770 (Ba/F3 cells) (Homo sapiens, UniProt P00533, INS769ASV)
Construct: expressed in transfected cells; host or cells: Ba/F3 (murine pro-B cells), retroviral transduction, puromycin selection, IL3-independent pool
Sequence (P00533 with tags, fused parts or gaps INS769ASV): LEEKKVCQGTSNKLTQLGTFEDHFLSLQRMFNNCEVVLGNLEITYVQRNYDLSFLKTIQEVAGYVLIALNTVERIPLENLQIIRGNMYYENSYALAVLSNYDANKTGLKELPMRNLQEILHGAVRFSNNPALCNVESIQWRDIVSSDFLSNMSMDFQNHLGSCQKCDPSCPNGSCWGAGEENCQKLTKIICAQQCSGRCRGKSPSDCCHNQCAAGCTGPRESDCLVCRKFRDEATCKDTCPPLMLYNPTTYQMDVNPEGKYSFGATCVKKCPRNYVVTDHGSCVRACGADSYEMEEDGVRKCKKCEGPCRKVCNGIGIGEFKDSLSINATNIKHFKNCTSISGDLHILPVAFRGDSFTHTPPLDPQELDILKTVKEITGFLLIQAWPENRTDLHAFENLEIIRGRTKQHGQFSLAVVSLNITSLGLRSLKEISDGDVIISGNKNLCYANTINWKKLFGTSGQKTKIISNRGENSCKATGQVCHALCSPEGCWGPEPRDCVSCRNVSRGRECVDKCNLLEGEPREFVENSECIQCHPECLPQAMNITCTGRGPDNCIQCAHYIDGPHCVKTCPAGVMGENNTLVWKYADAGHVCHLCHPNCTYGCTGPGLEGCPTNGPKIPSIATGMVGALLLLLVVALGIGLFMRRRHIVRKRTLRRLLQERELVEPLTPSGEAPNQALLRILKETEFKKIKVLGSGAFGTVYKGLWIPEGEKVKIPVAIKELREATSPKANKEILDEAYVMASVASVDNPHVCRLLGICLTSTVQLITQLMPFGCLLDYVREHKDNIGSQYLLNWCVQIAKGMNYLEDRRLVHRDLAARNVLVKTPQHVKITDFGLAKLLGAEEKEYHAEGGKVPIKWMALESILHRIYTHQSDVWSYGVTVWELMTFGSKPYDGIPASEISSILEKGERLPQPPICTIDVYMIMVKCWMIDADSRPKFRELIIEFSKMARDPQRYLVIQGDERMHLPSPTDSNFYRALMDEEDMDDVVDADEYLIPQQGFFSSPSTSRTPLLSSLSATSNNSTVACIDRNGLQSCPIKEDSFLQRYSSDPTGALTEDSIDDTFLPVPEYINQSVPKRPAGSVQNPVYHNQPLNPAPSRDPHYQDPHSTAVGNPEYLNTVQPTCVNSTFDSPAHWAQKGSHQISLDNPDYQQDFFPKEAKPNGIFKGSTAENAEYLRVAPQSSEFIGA
Test: Inhibitor activity on EGFR-dependent cell growth (CellTiter-Glo, 72 h), Ba/F3 EGFR exon 20 ASV Ins
Format: cell-based
Run Conditions: read-out: BaF3 ASV IC50

Compound | IC50
COc1c(Cl)cccc1Nc1c(-c2ccnc(N)c2)[nH]c2c1C(=O)NCC2 [compound 285] | 100 to 1000 nM
COc1c(F)cccc1Nc1c(-c2ccnc(C)c2)[nH]c2c1C(=O)NCC2 [compound 261] | > 1000 nM
COc1c(Cl)cccc1Nc1c(-c2ccnc3ccc(O[C@@H]4CCCOC4)nc23)[nH]c2c1C(=O)NCC2 [compound 742, formic acid] | < 100 nM
COc1c(Cl)cccc1Nc1c(-c2ccnc3ccc(OCC4CCC4)nc23)[nH]c2c1C(=O)NCC2 [compound 756] | < 100 nM
C=CC(=O)N1CCC2(CC1)CNC(=O)c1c2[nH]c(-c2ccncn2)c1Nc1cccc(F)c1OC [Compound 611] | < 100 nM
COCC[C@H]1CNC(=O)c2c1[nH]c(-c1ccncc1F)c2Nc1cccc(F)c1OC [421a] | 100 to 1000 nM
COc1c(Cl)cccc1Nc1c(-c2ccncc2F)[nH]c2c1C(=O)NC[C@H]2CC(N)=O [Compound 489] | 100 to 1000 nM
COc1c(Cl)cccc1Nc1c(-c2ccnc(NCC(F)(F)F)n2)[nH]c2c1C(=O)NCC2 [Compound 701] | > 1000 nM
